Taken from the supplement of paper PMC10307832.

tested on: NCI-H1623; assay: relative viability (nuclei count vs DMSO), 5 days (fraction); higher = more cells survive; conditions: first compound 4 µM
property: relative viability
Please give only the number in your answer, with no unit.

Worked cases, relative viability given:
| compound | relative viability |
| --- | --- |
| Clc1ccc(Nc2nnc(Cc3ccncc3)c3ccccc23)cc1 [Vatalanib] + COc1cc2c(Oc3ccc(NC(=O)C4(C(=O)Nc5ccc(F)cc5)CC4)cc3F)ccnc2cc1OCCCN1CCOCC1 [Foretinib] (partner 0.25 µM) | 0.783 |
| Clc1ccc(Nc2nnc(Cc3ccncc3)c3ccccc23)cc1 [Vatalanib] + Cc1nc(Nc2ncc(C(=O)Nc3c(C)cccc3Cl)s2)cc(N2CCN(CCO)CC2)n1 [Dasatinib] (partner 0.075 µM) | 0.435 |
| Clc1ccc(Nc2nnc(Cc3ccncc3)c3ccccc23)cc1 [Vatalanib] + Cc1cc(Nc2cc(N3CCN(C)CC3)nc(Sc3ccc(NC(=O)C4CC4)cc3)n2)n[nH]1 [Tozasertib] (partner 0.1 µM) | 0.393 |
| COc1cc(N2CCC(C(N)=O)CC2)ccc1Nc1nc(N)c(Cl)c(Nc2ccccc2S(=O)(=O)C(C)C)n1 [HG-5-88-01] + CCNC(=O)c1noc(-c2cc(C(C)C)c(O)cc2O)c1-c1ccc(CN2CCOCC2)cc1 [Luminespib] (partner 0.01 µM) | 0.47 |
| COc1cc(N2CCC(C(N)=O)CC2)ccc1Nc1nc(N)c(Cl)c(Nc2ccccc2S(=O)(=O)C(C)C)n1 [HG-5-88-01] + N=C(N)NC(=N)NCCc1ccccc1 [Phenformin] (partner 250 µM) | 0.524 |
| C[C@@H]1CN(CC(=O)Nc2ccc3c(c2)Cc2cccc(-c4cc(=O)cc(N5CCOCC5)o4)c2S3)C[C@H](C)O1 + N=C(N)NC(=N)NCCc1ccccc1 [Phenformin] (partner 250 µM) | 0.61 |

Q. Indicate its recorded relative viability; the compound in question is Clc1ccc(Nc2nnc(Cc3ccncc3)c3ccccc23)cc1 [Vatalanib] + COc1cccc2cc(-c3nc([C@H]4CC[C@H](C(=O)O)CC4)n4ncnc(N)c34)[nH]c12 [OSI-027] (partner 0.5 µM)
A. 0.386

* * *

tested on: NCI-H2342; assay: relative viability (nuclei count vs DMSO), 5 days (fraction); higher = more cells survive; settings: first compound 0.04 µM
Below, each entry is listed with its recorded relative viability.

Worked cases, relative viability given:
| molecule | property | value-reported |
| --- | --- | --- |
| C[C@@H]1CN(CC(=O)Nc2ccc3c(c2)Cc2cccc(-c4cc(=O)cc(N5CCOCC5)o4)c2S3)C[C@H](C)O1 + Cc1cc(Nc2cc(N3CCN(C)CC3)nc(Sc3ccc(NC(=O)C4CC4)cc3)n2)n[nH]1 [Tozasertib] (partner 0.1 µM) | relative viability | 0.477 |
| COc1cc(N2CCC(C(N)=O)CC2)ccc1Nc1nc(N)c(Cl)c(Nc2ccccc2S(=O)(=O)C(C)C)n1 [HG-5-88-01] + CC(=O)Nc1cccc(-n2c(=O)n(C3CC3)c(=O)c3c(Nc4ccc(I)cc4F)n(C)c(=O)c(C)c32)c1 [Trametinib] (partner 0.02 µM) | relative viability | 0.846 |

// next item, relative viability requested
Q. Indicate its recorded relative viability; the molecule in question is Clc1ccc(Nc2nnc(Cc3ccncc3)c3ccccc23)cc1 [Vatalanib] + O=C(CCCCCCC(=O)Nc1ccccc1)NO [Vorinostat] (partner 1 µM)
A. 0.747

* * *

test system: NCI-H2085; experiment: relative viability (nuclei count vs DMSO), 5 days (fraction); higher = more cells survive; conditions: first compound 0.08 µM
hey, just use 1 if measured relative viability is less than 0.8, otherwise -1

Observe how each entry below is paired with its result.
| molecule | group |
| --- | --- |
| CCCCCCCCCCCC1=C(O)C(=O)C=C(O)C1=O [Embelin] + CC(=O)c1c(C)c2cnc(Nc3ccc(N4CCNCC4)cn3)nc2n(C2CCCC2)c1=O [Palbociclib] (partner 0.5 µM) | 1 |
| CCCCCCCCCCCC1=C(O)C(=O)C=C(O)C1=O [Embelin] + Cc1nc(NC(=O)N2CCC[C@H]2C(N)=O)sc1-c1ccnc(C(C)(C)C(F)(F)F)c1 [Alpelisib] (partner 2 µM) | -1 |
| CCCCCCCCCCCC1=C(O)C(=O)C=C(O)C1=O [Embelin] + CC1(C)CCC(c2ccc(Cl)cc2)=C(CN2CCN(c3ccc(C(=O)NS(=O)(=O)c4ccc(N[C@H](CCN5CCOCC5)CSc5ccccc5)c(S(=O)(=O)C(F)(F)F)c4)cc3)CC2)C1 [Navitoclax] (partner 0.5 µM) | -1 |
| CCCCCCCCCCCC1=C(O)C(=O)C=C(O)C1=O [Embelin] + Nc1nc2[nH]cc(CCc3ccc(C(=O)N[C@@H](CCC(=O)O)C(=O)O)cc3)c2c(=O)[nH]1 [Pemetrexed] (partner 0.2 µM) | -1 |
| CCCCCCCCCCCC1=C(O)C(=O)C=C(O)C1=O [Embelin] + CS(=O)(=O)N1CCN(Cc2cc3nc(-c4cccc5[nH]ncc45)nc(N4CCOCC4)c3s2)CC1 [Pictilisib] (partner 1 µM) | 1 |
| CCCCCCCCCCCC1=C(O)C(=O)C=C(O)C1=O [Embelin] + O=C(CCCCCCC(=O)Nc1ccccc1)NO [Vorinostat] (partner 1 µM) | 1 |
| CCCCCCCCCCCC1=C(O)C(=O)C=C(O)C1=O [Embelin] + CC(=O)Nc1cccc(-n2c(=O)n(C3CC3)c(=O)c3c(Nc4ccc(I)cc4F)n(C)c(=O)c(C)c32)c1 [Trametinib] (partner 0.02 µM) | 1 |

Below: the item to evaluate.
Q. Answer whether the molecule CCCCCCCCCCCC1=C(O)C(=O)C=C(O)C1=O [Embelin] + COc1cc2c(Oc3ccc(NC(=O)C4(C(=O)Nc5ccc(F)cc5)CC4)cc3F)ccnc2cc1OCCCN1CCOCC1 [Foretinib] (partner 0.25 µM) has relative viability strictly less than 0.8
A. -1

* * *

tested on: EKVX; experiment: relative viability (nuclei count vs DMSO), 5 days (fraction); higher = more cells survive; settings: first compound 0.1265 µM
property: relative viability
Please give only the number in your answer, with no unit.

Worked cases, relative viability given:
| compound | measured-on | relative viability |
| --- | --- | --- |
| COc1cc(N2CCC(C(N)=O)CC2)ccc1Nc1nc(N)c(Cl)c(Nc2ccccc2S(=O)(=O)C(C)C)n1 [HG-5-88-01] + O=C(CCCCCCC(=O)Nc1ccccc1)NO [Vorinostat] (partner 1 µM) | EKVX | 0.775 |
| C[C@@H]1CN(CC(=O)Nc2ccc3c(c2)Cc2cccc(-c4cc(=O)cc(N5CCOCC5)o4)c2S3)C[C@H](C)O1 + Nc1ncn([C@H]2C[C@H](O)[C@@H](CO)O2)c(=O)n1 [Decitabine] (partner 2 µM) | EKVX | 0.368 |
| C[C@@H]1CN(CC(=O)Nc2ccc3c(c2)Cc2cccc(-c4cc(=O)cc(N5CCOCC5)o4)c2S3)C[C@H](C)O1 + O=C(CCCCCCC(=O)Nc1ccccc1)NO [Vorinostat] (partner 1 µM) | EKVX | 0.666 |
| COc1cc(N2CCC(C(N)=O)CC2)ccc1Nc1nc(N)c(Cl)c(Nc2ccccc2S(=O)(=O)C(C)C)n1 [HG-5-88-01] + CC(=O)Nc1cccc(-n2c(=O)n(C3CC3)c(=O)c3c(Nc4ccc(I)cc4F)n(C)c(=O)c(C)c32)c1 [Trametinib] (partner 0.02 µM) | EKVX | 0.36 |
| Clc1ccc(Nc2nnc(Cc3ccncc3)c3ccccc23)cc1 [Vatalanib] + NC(=O)Nc1cc(-c2cccc(F)c2)sc1C(=O)N[C@H]1CCCNC1 [AZD7762] (partner 0.2 µM) | EKVX | 0.623 |
| COc1cc(N2CCC(C(N)=O)CC2)ccc1Nc1nc(N)c(Cl)c(Nc2ccccc2S(=O)(=O)C(C)C)n1 [HG-5-88-01] + N=C(N)NC(=N)NCCc1ccccc1 [Phenformin] (partner 250 µM) | EKVX | 0.262 |

Q. Indicate its recorded relative viability; the compound in question is C[C@@H]1CN(CC(=O)Nc2ccc3c(c2)Cc2cccc(-c4cc(=O)cc(N5CCOCC5)o4)c2S3)C[C@H](C)O1 + CCNC(=O)c1noc(-c2cc(C(C)C)c(O)cc2O)c1-c1ccc(CN2CCOCC2)cc1 [Luminespib] (partner 0.01 µM)
A. 0.874

Q. Indicate its recorded relative viability; the compound in question is C[C@@H]1CN(CC(=O)Nc2ccc3c(c2)Cc2cccc(-c4cc(=O)cc(N5CCOCC5)o4)c2S3)C[C@H](C)O1 + Cc1nc(Nc2ncc(C(=O)Nc3c(C)cccc3Cl)s2)cc(N2CCN(CCO)CC2)n1 [Dasatinib] (partner 0.075 µM)
A. 0.568

* * *

Below, each entry is listed with its recorded relative viability.
tested on: NCI-H2023; experiment: relative viability (nuclei count vs DMSO), 5 days (fraction); higher = more cells survive; details: first compound 4 µM
Please give only the number in your answer, with no unit.

Worked cases, relative viability given:
| compound | relative viability |
| --- | --- |
| Clc1ccc(Nc2nnc(Cc3ccncc3)c3ccccc23)cc1 [Vatalanib] + Cc1cc(Nc2cc(N3CCN(C)CC3)nc(Sc3ccc(NC(=O)C4CC4)cc3)n2)n[nH]1 [Tozasertib] (partner 0.1 µM) | 0.241 |
| C[C@@H]1CN(CC(=O)Nc2ccc3c(c2)Cc2cccc(-c4cc(=O)cc(N5CCOCC5)o4)c2S3)C[C@H](C)O1 + CC(=O)Nc1cccc(-n2c(=O)n(C3CC3)c(=O)c3c(Nc4ccc(I)cc4F)n(C)c(=O)c(C)c32)c1 [Trametinib] (partner 0.02 µM) | 0.311 |
| Clc1ccc(Nc2nnc(Cc3ccncc3)c3ccccc23)cc1 [Vatalanib] + C[C@@H](Oc1cc(-c2cnn(C3CCNCC3)c2)cnc1N)c1c(Cl)ccc(F)c1Cl [Crizotinib] (partner 1 µM) | 0.559 |

Q. Indicate its recorded relative viability; the compound in question is COc1cc(N2CCC(C(N)=O)CC2)ccc1Nc1nc(N)c(Cl)c(Nc2ccccc2S(=O)(=O)C(C)C)n1 [HG-5-88-01] + O=C(CCCCCCC(=O)Nc1ccccc1)NO [Vorinostat] (partner 1 µM)
A. 0.436
